target: Melanocortin receptor 4 (Homo sapiens, UniProt P32245); experiment: Displacement of [125I]NDP-MSH from human recombinant MC4 receptor expressed in Sf9 cells
Sequence (P32245 whole entry): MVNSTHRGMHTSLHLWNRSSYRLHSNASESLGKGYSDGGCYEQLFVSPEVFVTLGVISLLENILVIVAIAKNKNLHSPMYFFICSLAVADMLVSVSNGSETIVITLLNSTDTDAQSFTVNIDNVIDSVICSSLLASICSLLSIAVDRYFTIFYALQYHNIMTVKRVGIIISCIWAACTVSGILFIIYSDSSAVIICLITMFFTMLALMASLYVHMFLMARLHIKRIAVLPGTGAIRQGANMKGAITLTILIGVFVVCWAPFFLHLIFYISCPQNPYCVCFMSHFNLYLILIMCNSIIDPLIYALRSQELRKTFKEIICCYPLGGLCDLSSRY
MEASURED_ENDPOINT: Ki (µM)

Examples from the recorded data:
>>> assay_value("NCCCCN(Cc1ccccc1)C(=O)CCCc1c[nH]c2ccccc12")
17
>>> assay_value("CC(Cc1ccccc1)CN(CCCCCCN)C(=O)c1cc2cc(O)ccc2[nH]1 (stereo not drawn)")
9.8
>>> assay_value("NCCCCCN(CCc1ccc2ccccc2c1)C(=O)Cc1c[nH]c2ccccc12")
9.4
>>> assay_value("COc1ccc(CN(C(=O)CCCc2c[nH]c3ccccc23)C2CCC(CC3CCC(N)CC3)CC2)cc1Br (stereo not drawn)")
4.8
>>> assay_value("N[C@H]1CC[C@H](NC(=O)N[C@H]2CC[C@H](N(Cc3ccccc3)C(=O)CCCc3c[nH]c4ccccc34)CC2)CC1")
25
>>> assay_value("COc1cc(Br)c(CN(C(=O)CCCc2c[nH]c3ccccc23)[C@H]2CC[C@@H](C[C@H]3CC[C@@H](N)CC3)CC2)cc1OC")
7.8

[a] NCCCCCN(Cc1ccccc1)C(=O)[C@H](N)Cc1c[nH]c2ccccc12
[b] NCCN(C/C(Cl)=C/c1ccccc1)C(=O)CCCc1c[nH]c2ccccc12
Returns the identifier with the smallest measured Ki among a and b . Please reply using the label of the selected record. b
(b: 5.8 µM, a: 87 µM)

[A] NCCCCCN(Cc1ccccc1)C(=O)CCCc1c[nH]c2ccccc12
[B] N=C(N)NCCCN(Cc1ccc2ccccc2c1)C(=O)Cc1c[nH]c2ccccc12
[C] NC1CCC(CC2CCC(N(Cc3c(F)cccc3F)C(=O)CCCc3c(Cc4ccc(O)cc4)[nH]c4ccccc34)CC2)CC1 (stereo not drawn)
Sort ascending by Ki. // list labels; follow requested order C, A, B
(C: 3 µM, A: 6.4 µM, B: 150 µM)
